assay: The drug is tested on WLS-052 corresponding to human gut metagenome with ENA study accession number: PRJEB37062 and ENA sample accession number: ERS12561747 for biotransformation under anaerobic condition. The drug concentrations were measured over 9 timepoints collected between 0 and 24 hours of incubation by liquid-chromatography-coupled mass spectrometry (LC–MS); conditions: 2 µM; note: call rule not given here

- COMPOUND: "Nc1nc(NC2CC2)c2ncn([C@H]3C=C[C@@H](CO)C3)c2n1.Nc1nc(NC2CC2)c2ncn([C@H]3C=C[C@@H](CO)C3)c2n1.O=S(=O)(O)O [ABACAVIR SULFATE]"
  Bacterial Biotransformation: "Compound NOT metabolized"
- COMPOUND: "COc1ccccc1OCCNCC(O)COc1cccc2[nH]c3ccccc3c12 (centres undefined)"
  Bacterial Biotransformation: "Compound metabolized"
- COMPOUND: "C[C@@H](c1ncncc1F)[C@](O)(Cn1cncn1)c1ccc(F)cc1F"
  Bacterial Biotransformation: "Compound metabolized"
- COMPOUND: "CCOC(=O)C1=C[C@]2(CC)CCCN3CCc4c(n1c1ccccc41)[C@@H]32"
  Bacterial Biotransformation: "Compound metabolized"
- COMPOUND: "COC(=O)C(c1ccccc1)C1CCCCN1 (centres undefined) [METHYLPHENIDATE]"
  Bacterial Biotransformation: "Compound NOT metabolized"
- COMPOUND: "CCN1CCCC1CNC(=O)c1cc(S(=O)(=O)CC)c(N)cc1OC (centres undefined) [AMISULPRIDE]"
  Bacterial Biotransformation: "Compound NOT metabolized"
- COMPOUND: "CC(=O)O[C@]1(C(C)=O)CC[C@H]2[C@@H]3C=C(C)C4=CC(=O)CC[C@]4(C)[C@H]3CC[C@@]21C [MEGESTROL ACETATE]"
  Bacterial Biotransformation: "Compound metabolized"
- COMPOUND: "CCCN1C[C@H](CSC)C[C@@H]2c3cccc4[nH]cc(c34)C[C@H]21.CS(=O)(=O)O [PERGOLIDE MESYLATE]"
  Bacterial Biotransformation: "Compound NOT metabolized"
- COMPOUND: "CC(C)NCC(O)COc1ccc(CC(N)=O)cc1 (centres undefined)"
  Bacterial Biotransformation: "Compound NOT metabolized"
- COMPOUND: "Nc1nc(N)nc(-c2cc(Cl)ccc2Cl)n1.O=C(O)/C=C\\C(=O)O [IRSOGLADINE MALEATE]"
  Bacterial Biotransformation: "Compound NOT metabolized"
- COMPOUND: "CC(C)(C)NC[C@H](O)COc1nsnc1N1CCOCC1.O=C(O)/C=C\\C(=O)O [TIMOLOL MALEATE]"
  Bacterial Biotransformation: "Compound NOT metabolized"
- COMPOUND: "CC(=O)OCC(=O)NCCCOc1cccc(CN2CCCCC2)c1 [ROXATIDINE ACETATE]"
  Bacterial Biotransformation: "Compound metabolized"
- COMPOUND: "Cc1cc(C)cc(OCC2CNC(=O)O2)c1 (centres undefined)"
  Bacterial Biotransformation: "Compound metabolized"
- COMPOUND: "CN1CCN2c3ccccc3Cc3ccccc3C2C1 (centres undefined)"
  Bacterial Biotransformation: "Compound NOT metabolized"
- COMPOUND: "CC(=O)CCCCn1c(=O)c2c(ncn2C)n(C)c1=O"
  Bacterial Biotransformation: "Compound NOT metabolized"
- COMPOUND: "C[N+]12CCC(CC1)C(OC(=O)C(O)(c1ccccc1)c1ccccc1)C2.[Br-] (centres undefined) [CLIDINIUM BROMIDE]"
  Bacterial Biotransformation: "Compound metabolized"
- COMPOUND: "O=C(NC(Cc1cc(=O)[nH]c2ccccc12)C(=O)O)c1ccc(Cl)cc1 (centres undefined) [REBAMIPIDE]"
  Bacterial Biotransformation: "Compound NOT metabolized"
- COMPOUND: "CCN(C)C(=O)Oc1cccc([C@H](C)N(C)C)c1.O=C(O)C(O)C(O)C(=O)O [RIVASTIGMINE TARTRATE]"
  Bacterial Biotransformation: "Compound metabolized"
- COMPOUND: "Clc1cccc(Cl)c1N=C1NCCN1"
  Bacterial Biotransformation: "Compound NOT metabolized"
- COMPOUND: "O=C(CCCN1CCC2(CC1)C(=O)NCN2c1ccccc1)c1ccc(F)cc1"
  Bacterial Biotransformation: "Compound NOT metabolized"
- COMPOUND: "COc1cc(C(=O)NCc2ccc(OCCN(C)C)cc2)cc(OC)c1OC [TRIMETHOBENZAMIDE]"
  Bacterial Biotransformation: "Compound NOT metabolized"
- COMPOUND: "CC(C)(C)NC(=O)[C@H]1CC[C@H]2[C@@H]3CC[C@H]4NC(=O)C=C[C@]4(C)[C@H]3CC[C@]12C [FINASTERIDE]"
  Bacterial Biotransformation: "Compound metabolized"
- COMPOUND: "CCN(CC)CCNC(=O)c1ccc(NC(C)=O)cc1 [ACECAINIDE]"
  Bacterial Biotransformation: "Compound NOT metabolized"
- COMPOUND: "CC(C)C[C@H]1C(=O)N2CCC[C@H]2[C@]2(O)O[C@](NC(=O)[C@@H]3C=C4c5cccc6[nH]c(Br)c(c56)C[C@H]4N(C)C3)(C(C)C)C(=O)N12.CS(=O)(=O)O [BROMOCRIPTINE MESYLATE]"
  Bacterial Biotransformation: "Compound metabolized"
- COMPOUND: "CC(=O)Oc1ccc(C(c2ccc(OC(C)=O)cc2)c2ccccn2)cc1"
  Bacterial Biotransformation: "Compound metabolized"
- COMPOUND: "COc1ccc(CN2CCNCC2)c(OC)c1OC.Cl.Cl [TRIMETAZIDINE DIHYDROCHLORIDE]"
  Bacterial Biotransformation: "Compound NOT metabolized"
- COMPOUND: "C#C[C@]1(OC(C)=O)CC[C@H]2[C@@H]3CCC4=C[C@@H](OC(C)=O)CC[C@@H]4[C@H]3CC[C@@]21C [ETHYNODIOL DIACETATE]"
  Bacterial Biotransformation: "Compound metabolized"
- COMPOUND: "CCOC(=O)[C@H](CCc1ccccc1)N[C@@H](C)C(=O)N1Cc2ccccc2C[C@H]1C(=O)O"
  Bacterial Biotransformation: "Compound metabolized"
- COMPOUND: "CCOc1ccccc1OCCN[C@H](C)Cc1ccc(OC)c(S(N)(=O)=O)c1.Cl [TAMSULOSIN HYDROCHLORIDE]"
  Bacterial Biotransformation: "Compound NOT metabolized"
- COMPOUND: "N[C@@H](Cc1ccc(N(CCCl)CCCl)cc1)C(=O)O"
  Bacterial Biotransformation: "Compound metabolized"
- COMPOUND: "CCN(CC)C(=O)C1(c2ccccc2)CC1CN (centres undefined)"
  Bacterial Biotransformation: "Compound NOT metabolized"
- COMPOUND: "CCCC(C)(COC(N)=O)COC(=O)NC(C)C (centres undefined)"
  Bacterial Biotransformation: "Compound metabolized"
- COMPOUND: "CC12CC3CC(C)(C1)CC(N)(C3)C2 [MEMANTINE]"
  Bacterial Biotransformation: "Compound NOT metabolized"
- COMPOUND: "C#C[C@]1(OC(C)=O)CC[C@H]2[C@@H]3CCC4=C/C(=N/O)CC[C@@H]4[C@H]3CC[C@@]21CC [NORGESTIMATE]"
  Bacterial Biotransformation: "Compound metabolized"

###

conditions: human gut metagenome, 24 h, 2 µM

- COMPOUND: "Clc1cccc(Cl)c1N=C1NCCN1"
  Bacterial Biotransformation: "Compound metabolized"
- COMPOUND: "COc1ccc2cc([C@H](C)C(=O)O)ccc2c1"
  Bacterial Biotransformation: "Compound metabolized"
- COMPOUND: "CC[C@H](C)C(=O)O[C@H]1CCC=C2C=C[C@H](C)[C@H](CC[C@@H]3C[C@@H](O)CC(=O)O3)[C@H]21"
  Bacterial Biotransformation: "Compound metabolized"
- COMPOUND: "Nc1nc(NC2CC2)c2ncn([C@H]3C=C[C@@H](CO)C3)c2n1.Nc1nc(NC2CC2)c2ncn([C@H]3C=C[C@@H](CO)C3)c2n1.O=S(=O)(O)O [ABACAVIR SULFATE]"
  Bacterial Biotransformation: "Compound metabolized"
- COMPOUND: "CCc1cccc2c3c([nH]c12)C(CC)(CC(=O)O)OCC3 (stereo not given)"
  Bacterial Biotransformation: "Compound metabolized"
- COMPOUND: "CC(C)NCC(O)COc1ccc(CC(N)=O)cc1 (stereo not given)"
  Bacterial Biotransformation: "Compound NOT metabolized"
- COMPOUND: "CCOc1ccccc1OCCN[C@H](C)Cc1ccc(OC)c(S(N)(=O)=O)c1.Cl [TAMSULOSIN HYDROCHLORIDE]"
  Bacterial Biotransformation: "Compound NOT metabolized"
- COMPOUND: "CN1CCC[C@@H]1CCO[C@](C)(c1ccccc1)c1ccc(Cl)cc1.O=C(O)/C=C/C(=O)O [CLEMASTINE FUMARATE]"
  Bacterial Biotransformation: "Compound metabolized"
- COMPOUND: "COc1ccc(C(CN(C)C)C2(O)CCCCC2)cc1 (stereo not given)"
  Bacterial Biotransformation: "Compound NOT metabolized"
- COMPOUND: "CC(C)(C)NC[C@H](O)COc1nsnc1N1CCOCC1.O=C(O)/C=C\\C(=O)O [TIMOLOL MALEATE]"
  Bacterial Biotransformation: "Compound NOT metabolized"
- COMPOUND: "Br.CN1CCC[C@@H]1Cc1c[nH]c2ccc(CCS(=O)(=O)c3ccccc3)cc12 [ELETRIPTAN HYDROBROMIDE]"
  Bacterial Biotransformation: "Compound metabolized"
- COMPOUND: "N#Cc1ccc2[nH]cc(CCCCN3CCN(c4ccc5oc(C(N)=O)cc5c4)CC3)c2c1"
  Bacterial Biotransformation: "Compound metabolized"
- COMPOUND: "COc1ccc(/C=C/C(=O)Nc2ccccc2C(=O)O)cc1OC"
  Bacterial Biotransformation: "Compound metabolized"
- COMPOUND: "CCS(=O)(=O)CCn1c([N+](=O)[O-])cnc1C"
  Bacterial Biotransformation: "Compound metabolized"
- COMPOUND: "CC(=O)CCCCn1c(=O)c2c(ncn2C)n(C)c1=O"
  Bacterial Biotransformation: "Compound NOT metabolized"
- COMPOUND: "CCCN(CCC)CCc1cccc2c1CC(=O)N2"
  Bacterial Biotransformation: "Compound metabolized"
- COMPOUND: "N=C(N)NC(=O)Cc1c(Cl)cccc1Cl"
  Bacterial Biotransformation: "Compound NOT metabolized"
- COMPOUND: "CCN(CC)CCNC(=O)c1ccc(NC(C)=O)cc1 [ACECAINIDE]"
  Bacterial Biotransformation: "Compound metabolized"
- COMPOUND: "C[C@@H](c1ncncc1F)[C@](O)(Cn1cncn1)c1ccc(F)cc1F"
  Bacterial Biotransformation: "Compound metabolized"
- COMPOUND: "CNNCc1ccc(C(=O)NC(C)C)cc1"
  Bacterial Biotransformation: "Compound metabolized"
- COMPOUND: "Br.COc1ccc2c(c1)[C@]13CCCC[C@@H]1[C@H](C2)N(C)CC3.O [DEXTROMETHORPHAN HYDROBROMIDE]"
  Bacterial Biotransformation: "Compound metabolized"
- COMPOUND: "CC[C@@]1(O)C(=O)OCc2c1cc1n(c2=O)Cc2cc3c(CN(C)C)c(O)ccc3nc2-1"
  Bacterial Biotransformation: "Compound NOT metabolized"
- COMPOUND: "O=C(O)c1cc(/N=N/c2ccc(S(=O)(=O)Nc3ccccn3)cc2)ccc1O"
  Bacterial Biotransformation: "Compound metabolized"
- COMPOUND: "C#C[C@]1(OC(C)=O)CC[C@H]2[C@@H]3CCC4=C[C@@H](OC(C)=O)CC[C@@H]4[C@H]3CC[C@@]21C [ETHYNODIOL DIACETATE]"
  Bacterial Biotransformation: "Compound metabolized"
- COMPOUND: "CN(C)C(=O)Oc1cc(OC(=O)N(C)C)cc(C(O)CNC(C)(C)C)c1 (stereo not given)"
  Bacterial Biotransformation: "Compound metabolized"
- COMPOUND: "CC(C)c1c(CN(C)C(C)Cc2ccccc2)n(C)n(-c2ccccc2)c1=O (stereo not given)"
  Bacterial Biotransformation: "Compound metabolized"
- COMPOUND: "O=C(NC(Cc1cc(=O)[nH]c2ccccc12)C(=O)O)c1ccc(Cl)cc1 (stereo not given) [REBAMIPIDE]"
  Bacterial Biotransformation: "Compound NOT metabolized"
- COMPOUND: "CC(=O)Nc1ccc(OC(C)=O)cc1 [DIACETAMATE]"
  Bacterial Biotransformation: "Compound metabolized"
- COMPOUND: "CC#CCn1c(N2CCC[C@@H](N)C2)nc2c1c(=O)n(Cc1nc(C)c3ccccc3n1)c(=O)n2C"
  Bacterial Biotransformation: "Compound NOT metabolized"
- COMPOUND: "Cc1nc(Nc2ncc(C(=O)Nc3c(C)cccc3Cl)s2)cc(N2CCN(CCO)CC2)n1 [DASATINIB ANHYDROUS]"
  Bacterial Biotransformation: "Compound metabolized"
- COMPOUND: "CN1[C@@H]2CC[C@H]1C[C@@H](OC(=O)[C@H](CO)c1ccccc1)C2"
  Bacterial Biotransformation: "Compound metabolized"
- COMPOUND: "CN(C)CCC=C1c2ccccc2COc2ccccc21 [DOXEPIN]"
  Bacterial Biotransformation: "Compound NOT metabolized"
- COMPOUND: "O=C1C(CC[S+]([O-])c2ccccc2)C(=O)N(c2ccccc2)N1c1ccccc1 (stereo not given)"
  Bacterial Biotransformation: "Compound metabolized"
- COMPOUND: "CCOc1ccc2nc(S(N)(=O)=O)sc2c1 [ETHOXZOLAMIDE]"
  Bacterial Biotransformation: "Compound metabolized"
- COMPOUND: "CN1CCN(C2=Nc3ccccc3Oc3ccc(Cl)cc32)CC1.O=C(O)CCC(=O)O [LOXAPINE SUCCINATE]"
  Bacterial Biotransformation: "Compound NOT metabolized"

Taken from ChEMBL document CHEMBL5724914.
